# IC50 per entry for CYP2C19 (Homo sapiens)
Answers are plain numbers, in µM.

The examples below pair each entry with its known result.
compound | measure-name | recorded-result
C[C@H](c1ccc(F)cc1)n1cncc1C1COCC2CN(S(=O)(=O)c3cnc(Nc4ccccn4)s3)CCN21 (some centres unmarked) [Compound 40] | IC50 | 3.05
C[C@H](c1ccc(F)cc1)n1cncc1CN1CCN(S(=O)(=O)c2cnc(N3CCN(C)CC3)s2)CC1 [Compound 2] | IC50 | 1.83
COC(c1cncn1[C@H](C)c1ccc(F)cc1)C1CCN(S(=O)(=O)c2cnc(Nc3ccc(C(F)(F)F)cn3)s2)CC1 (single isomer, unassigned) [Compound 45b] | IC50 | 4.49
C[C@H](c1ccc(F)cc1)n1cncc1CN1CCN(S(=O)(=O)c2cnc(N3CCN4CCC(O)[C@H]4C3)s2)CC1 (some centres unmarked) [Compound 27] | IC50 | 6.48
C[C@H](c1ccc(F)cc1)n1cncc1CN1CCN(S(=O)(=O)c2cnc(N3CCN4C(=O)OC[C@H]4C3)s2)CC1 [Compound 26] | IC50 | 7.21

Could you tell me IC50 for each of these compounds? They are listed below.
1. CN1CCN(c2ncc(S(=O)(=O)N3CCN(Cc4cncn4CCOc4ccc(F)cn4)CC3)s2)CC1 [Compound 33]
2. C[C@H](c1ccc(F)cc1)n1cncc1CC1CCN(S(=O)(=O)c2cnc(N3CCN(C)CC3)s2)CC1 [Compound 44]

[7.51, 8.39]

Could you tell me IC50 for each of these compounds? They are listed below.
1. C[C@H](c1ccc(F)cc1)n1cncc1CC1(C#N)CCN(S(=O)(=O)c2cnc(N3CCN(C)CC3)s2)CC1 [Compound 48]
2. C[C@H](c1ccc(F)cc1)n1cncc1CN1CCN(S(=O)(=O)c2cnc(N3CCN4C[C@H](O)C[C@H]4C3=O)s2)CC1 [Compound 18]
3. C[C@H](c1ccc(C#N)cc1)n1cncc1CN1CCN(S(=O)(=O)c2cnc(Nc3ccc(C(F)(F)F)cn3)s2)CC1 [Compound 4]

1: 8.06; 2: 2.16; 3: 0.721

Could you tell me IC50 for each of these compounds? They are listed below.
1. C[C@H](c1ccc(F)cc1)n1cncc1CN1CCN(S(=O)(=O)c2cnc(NCC(F)CN)s2)CC1 (some centres unmarked) [Compound 17]
2. C[C@H](c1ccc(F)cc1)n1cncc1C1CC12CCN(S(=O)(=O)c1cnc(N3CCN(C)CC3)s1)CC2 (single isomer, unassigned) [Compound 43b]
3. COC(c1cncn1[C@H](C)c1ccc(F)cc1)C1CCN(S(=O)(=O)c2cnc(Nc3ccc(C(F)(F)F)cn3)s2)CC1 (single isomer, unassigned) [Compound 45a]

1. 2.25
2. 9.2
3. 1.13
